Source: patent US8741602B2

Molecular target: UniProtKB P22309
Sequence (P22309 28-533): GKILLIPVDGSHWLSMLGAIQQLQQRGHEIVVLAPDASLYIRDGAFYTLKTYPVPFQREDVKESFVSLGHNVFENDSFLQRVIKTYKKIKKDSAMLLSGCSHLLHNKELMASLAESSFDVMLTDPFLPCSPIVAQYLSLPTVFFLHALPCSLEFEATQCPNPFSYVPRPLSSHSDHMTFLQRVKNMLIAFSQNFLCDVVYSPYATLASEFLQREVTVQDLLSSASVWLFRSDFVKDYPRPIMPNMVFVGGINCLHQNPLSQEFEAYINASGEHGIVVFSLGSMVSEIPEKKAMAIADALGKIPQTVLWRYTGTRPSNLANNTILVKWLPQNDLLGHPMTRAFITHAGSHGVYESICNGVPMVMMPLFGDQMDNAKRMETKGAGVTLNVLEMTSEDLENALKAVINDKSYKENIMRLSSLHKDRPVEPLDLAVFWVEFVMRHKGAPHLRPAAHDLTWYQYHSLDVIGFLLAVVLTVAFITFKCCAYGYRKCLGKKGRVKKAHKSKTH
Experiment: Glucuronide production in resting S. cerevisiae AH22 cells co-expressing UDPGDH and UGT1A1
Settings: budding yeast, UGT1A1
property: production of glucuronide per biomass dry weight (µmol/day/g dry weight)
Answer in µmol/day/g dry weight, number only, no unit symbol.

Problem: If you can, please state the reported production of glucuronide per biomass dry weight value of Cc1cc(=O)oc2cc(O[C@@H]3O[C@H](C(=O)O)[C@@H](O)[C@H](O)[C@H]3O)ccc12.O [4-metylumberrferone glucuronide, 4-methylumberrferone glucuronide] .
Result: 2.6
